Data credit: patent US20240239881A1

Molecular target: T1, recombinant biotinylated hAngiopoietin-2 protein (R&D, Cat. No.: BT623B/CF) (human, UniProt O15123 19-496, limits assumed, biotinylated (sites not given))
T1 construct: Bought protein; also called Biotin Ang2; human biotin Ang2 protein
T1 sequence: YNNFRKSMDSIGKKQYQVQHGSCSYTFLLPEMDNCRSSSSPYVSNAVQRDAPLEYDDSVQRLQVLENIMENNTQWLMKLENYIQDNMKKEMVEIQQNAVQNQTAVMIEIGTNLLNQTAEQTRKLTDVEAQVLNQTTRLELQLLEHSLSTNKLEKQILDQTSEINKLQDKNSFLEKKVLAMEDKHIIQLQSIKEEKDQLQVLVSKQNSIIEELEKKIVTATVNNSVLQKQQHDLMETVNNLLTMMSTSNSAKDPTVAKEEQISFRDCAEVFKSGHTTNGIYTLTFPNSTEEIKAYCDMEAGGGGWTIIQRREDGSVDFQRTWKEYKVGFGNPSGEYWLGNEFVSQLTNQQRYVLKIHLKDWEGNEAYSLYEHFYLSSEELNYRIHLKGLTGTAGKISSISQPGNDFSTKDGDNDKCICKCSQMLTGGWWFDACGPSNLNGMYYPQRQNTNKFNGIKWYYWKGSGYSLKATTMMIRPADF
Experiment: blocking ELISA: antibody titrated against biotinylated hAng2 (300 ng/ml final); blocked binding to coated hTie2 protein; Avidin-HRP detection
endpoint: IC50 (nM)
Dear colleague, please return just the value in nM, with no unit written.

For the binder shown here, affinity matured antibody Amhz81H10.4.49 (antibody, human IgG1, kappa, V domains shown, also called Am81H10.4.49) VH: EVQLVESGGGLVKPGGSLRLSCAASGFTFQNYWANWVRQAPGKGLEWVAEIRLKSNNYATHYAESVKGRFTISRDVSKNTVYLQMNSLKTEDTAVYYCTDTTPAAYWGQGTLVTVSS VL: DIQMTQSPSSLSASVGDRVTITCKASQDVWTDVAWYQQKPGKAPKLLIYWGSTRWTGVPSRFSGSGSGTDFTLTISSLQPEDFATYYCQQTNIYPLTFGGGTKVEIKR , give the reported IC50. 0.506
